experiment: NCI Yeast Anticancer Drug Screen. Data for the sgs1 mgt1 strain (AID 161);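 further: 0% = growth of cultures given vehicle only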; conditions: S. cerevisiae sgs1 mgt1 strain, at 50.0 µM, active compounds read high
This is part of a sample that, as a whole, favours compounds with a hit. Of some 79,000 tested, about 15% had one in any assay.
Reported values of growth inhibition for individual entries
Readout: growth inhibition (%)

- COc1cc(OC)c([N+](=O)[O-])cc1/C=C/C(=O)O: 8
- COC(=O)c1c(C)cc(OC)c(C/C=C(\C)CCCc2coc(C=C(C)C)c2)c1OC: 19
- Clc1ccc(N=C2c3ccccc3CN2c2ccc(Cl)cc2)cc1: -14.4
- CC1(C)CC2(C)CC1CC2O (stereo not drawn): -1.95
- CC1C=CCC2C(=O)OC(=O)C12 (stereo not drawn): -4.65
- C[N+]1=C(/C=C/c2ccnc3c(O)cccc23)C(C)(C)c2ccccc21: 2.45
- COC(=O)C1=C(NC(=O)Nc2ccc([N+](=O)[O-])cc2)OC(C)(C)C1c1ccc(Cl)cc1 (stereo not drawn): 6.45
- CC(=O)Nc1ccc2c(c1)N(O)C(=O)C2(C)C: 11.4
